- protocolText: in vivo
- conditionsUsed: female, athymic nude-Foxn1nu/Foxn1+, mouse, 20 pmol, total radioactivity, Biodistribution Bone
Where a SMILES comes first, the peptide text is derived from it. Bridges are numbered along the chain shown (N, C = ends). [ ]: non-standard residue; d: D form. The star is where a group is joined. dPhe(4-NHCONH2) = NC(=O)Nc1ccc(C[C@@H](N)C(=O)O)cc1; Phe(4-Cl) = N[C@@H](Cc1ccc(Cl)cc1)C(=O)O; X1 = NCCNCC(CNCCN)C(=O)*

- compound: "C[C@@H](O)[C@@H]1NC(=O)[C@H](CCCCN)NC(=O)[C@@H](Cc2ccc(NC(N)=O)cc2)NC(=O)[C@H](Cc2ccc(O)cc2)NC(=O)[C@H](NC(=O)[C@H](Cc2ccc(Cl)cc2)NC(=O)C(CNCCN)CNCCN)CSSC[C@@H](C(=O)N[C@H](Cc2ccc(O)cc2)C(N)=O)NC1=O [[^99mTc]Tc-TECANT-1, metal not drawn] (X1-[Phe(4-Cl)][dC]Y[dPhe(4-NHCONH2)]KTC[dY]-NH2; disulfide 2-7)"
  units: "%ID/g"
  tissue uptake at 4 h: 0.59
- compound: "C[C@@H](O)[C@@H]1NC(=O)[C@H](CCCCN)NC(=O)[C@@H](Cc2c[nH]c3ccccc23)NC(=O)[C@H](Cc2ccc(O)cc2)NC(=O)[C@H](NC(=O)[C@H](Cc2ccc(Cl)cc2)NC(=O)C(CNCCN)CNCCN)CSSC[C@@H](C(=O)N[C@H](Cc2ccc(O)cc2)C(N)=O)NC1=O [[^99mTc]Tc-TECANT-2, metal not drawn]"
  units: "%ID/g"
  tissue uptake at 4 h: 0.41

###

- protocolText: in vivo
- conditionsUsed: female, athymic nude-Foxn1^nu/Foxn1^+, mouse, 20 pmol, total radioactivity, Biodistribution Heart
Where a SMILES comes first, the peptide text is derived from it. Bridges are numbered along the chain shown (N, C = ends). [ ]: non-standard residue; d: D form. The star is where a group is joined. dPhe(4-NHCONH2) = NC(=O)Nc1ccc(C[C@@H](N)C(=O)O)cc1; Phe(4-Cl) = N[C@@H](Cc1ccc(Cl)cc1)C(=O)O; X1 = NCCNCC(CNCCN)C(=O)*
observedProperty: tissue uptake at 4 h (%ID/g)

- molecule: "C[C@@H](O)[C@@H]1NC(=O)[C@H](CCCCN)NC(=O)[C@@H](Cc2ccc(NC(N)=O)cc2)NC(=O)[C@H](Cc2ccc(O)cc2)NC(=O)[C@H](NC(=O)[C@H](Cc2ccc(Cl)cc2)NC(=O)C(CNCCN)CNCCN)CSSC[C@@H](C(=O)N[C@H](Cc2ccc(O)cc2)C(N)=O)NC1=O [[^99mTc]Tc-TECANT-1, metal not drawn] (X1-[Phe(4-Cl)][dC]Y[dPhe(4-NHCONH2)]KTC[dY]-NH2; disulfide 2-7)"
  readoutValue: 0.24
- molecule: "C[C@@H](O)[C@@H]1NC(=O)[C@H](CCCCN)NC(=O)[C@@H](Cc2c[nH]c3ccccc23)NC(=O)[C@H](Cc2ccc(O)cc2)NC(=O)[C@H](NC(=O)[C@H](Cc2ccc(Cl)cc2)NC(=O)C(CNCCN)CNCCN)CSSC[C@@H](C(=O)N[C@H](Cc2ccc(O)cc2)C(N)=O)NC1=O [[^99mTc]Tc-TECANT-2, metal not drawn]"
  readoutValue: 0.26
